# target-under-test: VEGFR3 cytoplasmic domain (Homo sapiens, UniProt P35916, DEL949-1002)
# Sequence (P35916 with tags, fused parts or gaps DEL949-1002 limits assumed): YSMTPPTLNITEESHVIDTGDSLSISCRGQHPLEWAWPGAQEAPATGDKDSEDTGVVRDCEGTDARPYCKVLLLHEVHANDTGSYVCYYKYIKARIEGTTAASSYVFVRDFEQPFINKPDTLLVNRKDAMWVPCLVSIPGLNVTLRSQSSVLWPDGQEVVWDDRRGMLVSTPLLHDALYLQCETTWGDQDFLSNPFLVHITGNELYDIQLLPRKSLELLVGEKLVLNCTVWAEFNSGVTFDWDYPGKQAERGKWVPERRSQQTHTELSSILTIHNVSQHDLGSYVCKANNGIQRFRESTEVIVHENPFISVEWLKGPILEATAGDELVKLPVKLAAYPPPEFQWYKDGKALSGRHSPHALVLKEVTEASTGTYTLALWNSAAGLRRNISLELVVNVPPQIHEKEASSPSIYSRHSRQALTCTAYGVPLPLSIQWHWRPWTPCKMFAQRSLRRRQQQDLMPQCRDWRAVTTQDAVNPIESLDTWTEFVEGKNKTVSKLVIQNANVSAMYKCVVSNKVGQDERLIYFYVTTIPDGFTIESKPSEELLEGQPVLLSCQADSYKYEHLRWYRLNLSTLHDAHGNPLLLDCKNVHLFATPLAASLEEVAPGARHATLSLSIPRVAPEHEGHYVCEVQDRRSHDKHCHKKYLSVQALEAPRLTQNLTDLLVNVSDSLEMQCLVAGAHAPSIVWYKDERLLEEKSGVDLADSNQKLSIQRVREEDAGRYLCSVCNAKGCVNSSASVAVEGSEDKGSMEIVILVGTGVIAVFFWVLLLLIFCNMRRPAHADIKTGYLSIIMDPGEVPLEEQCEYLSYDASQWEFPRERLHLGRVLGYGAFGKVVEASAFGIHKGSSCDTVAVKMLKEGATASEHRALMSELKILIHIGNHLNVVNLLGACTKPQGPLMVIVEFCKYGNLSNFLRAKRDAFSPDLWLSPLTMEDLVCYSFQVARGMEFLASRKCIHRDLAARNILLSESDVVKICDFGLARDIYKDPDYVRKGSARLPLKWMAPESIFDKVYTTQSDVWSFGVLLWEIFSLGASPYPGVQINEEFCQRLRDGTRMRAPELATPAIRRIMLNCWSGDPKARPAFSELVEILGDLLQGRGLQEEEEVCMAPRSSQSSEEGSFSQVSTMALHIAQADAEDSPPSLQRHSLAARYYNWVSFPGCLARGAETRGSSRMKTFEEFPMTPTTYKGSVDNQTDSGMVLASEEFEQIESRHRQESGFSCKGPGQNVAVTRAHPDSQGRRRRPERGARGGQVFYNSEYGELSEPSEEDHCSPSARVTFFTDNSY
# experiment-description: VEGFR3 biochemical assay (Alpha Screen)
# conditions: modified form (*): N-terminal Hexa-His-fusion protein, amino acids 818-1177 lacking 949-1002
property-name: IC50 (µM)
Give just the number in µM; leave the unit off.

Example molecules with recorded IC50:
In [3]: df
Out[3]:
                                   molecule                         target_under_test  obs_value
0  COc1cc(C2CCNCC2)ccc1Nc1ncc(C(F)(F)F)c(CCc2ccccc2CC(N)=O)n1 [Compound 2]  VEGFR3 cytoplasmic domain (Homo sapiens, UniProt P35916, DEL949-1002)       3.68
1  COc1cc(N2CCNCC2)ccc1Nc1ncc(C(F)(F)F)c(CCc2ccccc2CC(N)=O)n1 [Compound 1]  VEGFR3 cytoplasmic domain (Homo sapiens, UniProt P35916, DEL949-1002)      0.275
2  CCN1CCC(c2ccc(Nc3ncc(C(F)(F)F)c(CCc4cccc(C(N)=O)c4)n3)c(OC)c2)CC1 [Compound 7]  VEGFR3 cytoplasmic domain (Homo sapiens, UniProt P35916, DEL949-1002)       13.3

// next entry
*Q* Which measured IC50 value corresponds to COc1cc(C2CCNCC2)ccc1Nc1ncc(C(F)(F)F)c(CCc2cccc(C(N)=O)c2)n1 [Compound 5] ?
*A* 5.75

Attribution: patent US9120761B2
